Attribution: the NIST ThermoML archive (doi:10.1016/j.jct.2015.05.014)

Below, each entry is listed alongside its reported activity coefficient.
# experiment_notes: activity coefficient (dimensionless); of the first substance listed, at infinite dilution; xn = mol fraction of the nth substance listed
# recorded_conditions: 318.15 K; 100 kPa; Liquid; Chromatography; x1 = 0

Here are 3 compounds together with their reported answers.
>  <compound>
c1ccsc1 [thiophene] + CC(O)C(=O)[O-].CC[N+]1(C)CCCC1

>  <assay_endpoint>
activity coefficient

>  <result>
1.29

$$$$
>  <compound>
CCC(=O)CC [pentan-3-one] + CC(O)C(=O)[O-].CC[N+]1(C)CCCC1

>  <assay_endpoint>
activity coefficient

>  <result>
4.84

$$$$
>  <compound>
CCCCCCCC [octane] + CC(O)C(=O)[O-].CC[N+]1(C)CCCC1

>  <assay_endpoint>
activity coefficient

>  <result>
307

$$$$

(Q) Quote activity coefficient reported for C1CCCCC1 [cyclohexane] + CC(O)C(=O)[O-].CC[N+]1(C)CCCC1 please.
(A) 48.6

(Q) Quote activity coefficient reported for CCOCC [diethyl ether] + CC(O)C(=O)[O-].CC[N+]1(C)CCCC1 please.
(A) 15.6

(Q) Quote activity coefficient reported for C=CCCCC [hex-1-ene] + CC(O)C(=O)[O-].CC[N+]1(C)CCCC1 please.
(A) 53.3

(Q) Quote activity coefficient reported for Cc1ccccc1 [toluene] + CC(O)C(=O)[O-].CC[N+]1(C)CCCC1 please.
(A) 5.36
